molecular target: melanocortin 1 receptor (MC1R) (UniProt Q01726); assay: 125I-NDP-MSH competition, HEK293 membranes
Sequence (Q01726 whole entry): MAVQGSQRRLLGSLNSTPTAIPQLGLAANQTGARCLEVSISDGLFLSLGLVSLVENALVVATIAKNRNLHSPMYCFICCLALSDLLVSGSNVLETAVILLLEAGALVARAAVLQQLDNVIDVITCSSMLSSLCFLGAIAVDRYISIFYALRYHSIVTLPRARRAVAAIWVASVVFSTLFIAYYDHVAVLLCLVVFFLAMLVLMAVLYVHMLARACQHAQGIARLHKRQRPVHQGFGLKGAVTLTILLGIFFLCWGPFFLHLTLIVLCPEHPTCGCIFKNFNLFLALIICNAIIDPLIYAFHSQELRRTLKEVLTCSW
pKi: −log10 of the molar value. [ ]: non-standard residue; d: D form. The star is where a group is joined. NH(CH2)3Ph = c1ccc(CCCN*)cc1
READOUT: pKi

BINDER | READOUT | BOUND_TYPE | NUMERIC_RESULT
Ac-[dW][dR]F[dH]-NH2 [peptide 883] | pKi | < | 4.52
H-[dV][dP][dK]G[dW][dR][dF][dH]-{NH(CH2)3Ph} (SMILES CC(C)[C@@H](N)C(=O)N1CCC[C@@H]1C(=O)N[C@H](CCCCN)C(=O)NCC(=O)N[C@H](Cc1c[nH]c2ccccc12)C(=O)N[C@H](CCCNC(=N)N)C(=O)N[C@H](Cc1ccccc1)C(=O)N[C@H](Cc1c[nH]cn1)C(=O)NCCCc1ccccc1) [peptide 847] | pKi | = | 6.82
